Molecular target: T1, human GPC3-His protein (human, UniProt P51654 25-559)
T1 construct: Bought protein; also called human GPC3 protein; not shown: His tag
Experiment: ELISA, coated human GPC3, antibody 0.1 nM;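 note: antigen coated on 96-well plates at 1 µg/mL, antibody bound 2 h at 37 °C, detected with HRP-labeled secondary antibody and TMB substrate, acid-stopped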
Entries and their OD450 nm values follow.
Give the number; OD450 is assumed, so skip it.

Would you please look over these solved cases?
[[record]]
binder = "F1.92.17 human-murine chimeric antibody (antibody, human IgG1, kappa, V domains shown) VH: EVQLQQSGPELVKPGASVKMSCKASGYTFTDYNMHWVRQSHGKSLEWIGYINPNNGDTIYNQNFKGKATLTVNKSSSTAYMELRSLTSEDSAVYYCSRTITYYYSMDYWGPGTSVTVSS VL: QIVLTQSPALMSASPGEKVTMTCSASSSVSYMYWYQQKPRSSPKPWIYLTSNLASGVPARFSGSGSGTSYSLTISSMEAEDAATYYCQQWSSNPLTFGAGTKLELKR"
measure_unit = "OD450"
value_observed = 0.25

[[record]]
binder = "F4.26.1 human-murine chimeric antibody (antibody, human IgG1, kappa, V domains shown) VH: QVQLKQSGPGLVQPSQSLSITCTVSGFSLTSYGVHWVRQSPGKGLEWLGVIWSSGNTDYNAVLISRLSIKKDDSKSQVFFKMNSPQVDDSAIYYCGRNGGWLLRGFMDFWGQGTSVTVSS VL: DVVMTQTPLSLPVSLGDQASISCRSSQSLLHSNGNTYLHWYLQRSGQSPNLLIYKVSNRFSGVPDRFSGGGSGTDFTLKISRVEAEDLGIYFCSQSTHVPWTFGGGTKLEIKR"
measure_unit = "OD450"
value_observed = 0.64

[[record]]
binder = "F1.21.8 human-murine chimeric antibody (antibody, human IgG1, kappa, V domains shown) VH: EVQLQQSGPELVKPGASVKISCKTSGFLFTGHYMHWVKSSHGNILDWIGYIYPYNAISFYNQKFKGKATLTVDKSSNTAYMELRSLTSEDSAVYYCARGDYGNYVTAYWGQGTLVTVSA VL: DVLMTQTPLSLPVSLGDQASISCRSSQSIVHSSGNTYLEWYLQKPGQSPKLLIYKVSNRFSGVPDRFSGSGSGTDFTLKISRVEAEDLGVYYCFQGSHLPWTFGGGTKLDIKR"
measure_unit = "OD450"
value_observed = 0.9

[[record]]
binder = "F1.57.21 human-murine chimeric antibody (antibody, human IgG1, kappa, V domains shown) VH: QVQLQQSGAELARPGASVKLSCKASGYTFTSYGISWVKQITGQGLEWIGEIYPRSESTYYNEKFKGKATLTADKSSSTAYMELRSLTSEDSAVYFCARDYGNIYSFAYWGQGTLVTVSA VL: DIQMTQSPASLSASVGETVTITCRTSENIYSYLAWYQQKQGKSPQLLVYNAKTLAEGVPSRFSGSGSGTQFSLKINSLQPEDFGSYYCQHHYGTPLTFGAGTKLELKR"
measure_unit = "OD450"
value_observed = 0.8


Answer with the recorded OD450 nm of F1.145.22 human-murine chimeric antibody (antibody, human IgG1, kappa, V domains shown) VH: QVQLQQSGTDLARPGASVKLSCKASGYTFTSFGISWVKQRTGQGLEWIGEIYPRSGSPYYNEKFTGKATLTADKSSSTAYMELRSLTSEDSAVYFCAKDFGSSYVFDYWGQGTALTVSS VL: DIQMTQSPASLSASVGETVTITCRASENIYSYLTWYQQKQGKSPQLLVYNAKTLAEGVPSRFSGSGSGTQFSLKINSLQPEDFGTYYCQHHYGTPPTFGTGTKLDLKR only. 0.94
